SYSTEM NAME: T1, human CD22-ECD-His protein (human, UniProt P20273 20-687)
T1 construct: Recombinant, from HEK293E cells; also called hCD22-ECD-His; human CD22-His protein; not shown: His tag
T1 sequence: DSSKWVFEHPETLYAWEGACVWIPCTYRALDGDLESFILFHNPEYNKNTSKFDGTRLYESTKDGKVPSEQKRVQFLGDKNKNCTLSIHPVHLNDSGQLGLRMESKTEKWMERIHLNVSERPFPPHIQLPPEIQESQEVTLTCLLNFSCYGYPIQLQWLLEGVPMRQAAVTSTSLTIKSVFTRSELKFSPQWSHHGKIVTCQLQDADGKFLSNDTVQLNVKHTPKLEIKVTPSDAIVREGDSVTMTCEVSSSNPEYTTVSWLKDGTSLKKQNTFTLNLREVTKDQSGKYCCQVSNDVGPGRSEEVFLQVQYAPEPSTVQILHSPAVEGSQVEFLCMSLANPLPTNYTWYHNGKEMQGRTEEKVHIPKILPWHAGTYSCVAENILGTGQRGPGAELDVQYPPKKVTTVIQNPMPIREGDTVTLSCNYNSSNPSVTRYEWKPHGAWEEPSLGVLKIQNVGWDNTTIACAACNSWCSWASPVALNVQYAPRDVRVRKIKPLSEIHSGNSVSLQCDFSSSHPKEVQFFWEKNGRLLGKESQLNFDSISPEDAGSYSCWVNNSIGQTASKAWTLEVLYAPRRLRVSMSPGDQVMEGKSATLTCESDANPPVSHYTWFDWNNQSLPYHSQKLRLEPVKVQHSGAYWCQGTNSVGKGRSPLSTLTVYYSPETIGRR
ASSAY METHOD TEXT: SPR (Biacore), antibody captured on Protein A chip, CD22-ECD-His in solution
ATTRIBUTE MEASURED: Kd
Report as: number unit

Check out these entries, answers already filled in.
BINDER | VALUE MEASURED
F1.7.6 (antibody, human IgG1, kappa, V domains shown, Chimeric IgG1 kappa) VH: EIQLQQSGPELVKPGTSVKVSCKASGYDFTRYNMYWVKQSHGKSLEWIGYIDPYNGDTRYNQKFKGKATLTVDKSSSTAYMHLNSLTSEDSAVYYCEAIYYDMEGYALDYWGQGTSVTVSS VL: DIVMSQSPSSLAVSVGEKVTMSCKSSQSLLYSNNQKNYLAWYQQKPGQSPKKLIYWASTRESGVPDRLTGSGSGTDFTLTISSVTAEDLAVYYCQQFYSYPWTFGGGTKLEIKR | 1.7 nM
F1.120.15 (antibody, human IgG1, kappa, V domains shown, Chimeric IgG1 kappa) VH: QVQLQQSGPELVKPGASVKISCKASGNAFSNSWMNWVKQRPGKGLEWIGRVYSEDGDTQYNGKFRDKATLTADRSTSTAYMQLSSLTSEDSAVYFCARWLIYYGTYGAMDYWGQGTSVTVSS VL: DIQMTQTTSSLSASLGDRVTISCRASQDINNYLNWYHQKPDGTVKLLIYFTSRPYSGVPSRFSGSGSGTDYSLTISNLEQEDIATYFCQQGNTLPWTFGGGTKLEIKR | 19.5 nM

Now look at this entry.
I would be grateful if you could share the reported Kd for F1.62.10 (antibody, human IgG1, kappa, V domains shown, Chimeric IgG1 kappa) VH: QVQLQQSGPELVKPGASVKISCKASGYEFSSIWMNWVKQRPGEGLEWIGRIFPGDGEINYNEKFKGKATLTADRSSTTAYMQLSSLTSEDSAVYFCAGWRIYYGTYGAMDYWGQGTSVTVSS VL: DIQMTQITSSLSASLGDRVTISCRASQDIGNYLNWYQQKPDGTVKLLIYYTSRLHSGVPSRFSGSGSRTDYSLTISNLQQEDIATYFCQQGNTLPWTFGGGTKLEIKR .
29.3 nM
